# Test system: Escherichia coli
# assay_remarks: Antibacterial activity against Escherichia coli by micro-broth dilution method
# Type: functional
Reported MIC values for the following compounds.
Give the value in µg/mL but do not write µg/mL after it.

Here are 2 compounds together with their reported answers.
[
  {
    "mol_smiles": "NCC[C@H](O)C(=O)N[C@@H]1C[C@H](N)[C@@H](O[C@H]2O[C@H](CN)[C@@H](O)[C@H](O)[C@H]2O)[C@H](O)[C@H]1O[C@H]1O[C@H](CO)[C@@H](O)[C@H](N)[C@H]1O",
    "quantity_name": "MIC",
    "value_units": "µg/mL",
    "reported_result": 1
  },
  {
    "mol_smiles": "Cc1ccc(OC2=C(Nc3ccccc3)C(=O)c3ccccc3C2=O)cc1",
    "quantity_name": "MIC",
    "value_units": "µg/mL",
    "reported_result": 50
  }
]

Now look at this one.
Notebook: Cc1ccc(OC2=C(Cl)C(=O)c3ccccc3C2=O)cc1 , MIC read as 25
